Read-out: Vascular cell adhesion molecule 1 (VCAM1), VCAM1 (gene 7412)
Method notes: BSK_hDFCGF_VCAM1: BioMAP Diversity Plus: hDFCGF Assay for Vascular cell adhesion molecule 1 (VCAM1) Biomarker Activity (AID 2283065)
Condition description: primary human foreskin fibroblasts; actives raise or lower the signal
Calls of active or inactive are those of the source. The calls were made as follows: active = hit-call score of the fitted dose curve at least 0.9, where 1 is the maximum; inactive = score below 0.9.
Classes used: active, inactive

Compound: CCNc1nc(Cl)nc(NC(C)(C)C#N)n1
Class label: inactive
//
Compound: COP(=O)(NC(C)=O)SC (configuration not stated)
Class label: inactive
//
Compound: CC(C)=CC1C(C(=O)OCN2C(=O)C3=C(CCCC3)C2=O)C1(C)C (configuration not stated)
Class label: active
//
Compound: CCC(CC)Nc1c([N+](=O)[O-])cc(C)c(C)c1[N+](=O)[O-]
Class label: active
//
Compound: FC(F)C(F)(F)OCC(Cn1cncn1)c1ccc(Cl)cc1Cl (configuration not stated)
Class label: inactive
//
Compound: CCCCSP(=O)(SCCCC)SCCCC
Class label: inactive
//
Compound: COc1cc(OC)nc(Sc2cccc(Cl)c2C(=O)O)n1
Class label: inactive
//
Compound: COP(=O)(OC)C(O)C(Cl)(Cl)Cl (configuration not stated)
Class label: inactive
//
Compound: CON=C(C(=O)OC)c1ccccc1CON=C(C)c1cccc(C(F)(F)F)c1
Class label: inactive
//
Compound: CCC(=NOC/C=C/Cl)C1=C(O)CC(C2CCOCC2)CC1=O (configuration not stated)
Class label: inactive
//
Compound: CC(C1CC1)C(O)(Cn1cncn1)c1ccc(Cl)cc1 (configuration not stated)
Class label: inactive
//
Compound: C#CC(C)(C)NC(=O)c1cc(Cl)cc(Cl)c1
Class label: inactive

====

Method notes: APR_HepG2_NuclearSize_1hr: Apredica 1-hour HepG2 Assay for Nuclear Size (AID 2282670)
Condition description: high-content imaging, actives raise or lower the signal
Description: APR_HepG2_1hr is a cell-based, multiplexed-readout assay that uses HepG2, a human liver cell line, with measurements taken at 1 hour after chemical dosing in a 384-well plate.APR_HepG2_NuclearSize_1hr is one of 10 assay component(s) measured or calculated from the APR_HepG2_1hr assay. […] This assay endpoint, APR_HepG2_NuclearSize_1hr, was analyzed with bidirectional fitting relative to DMSO as the negative control and baseline of activity. […]
The source made the active and inactive calls. The calls were made as follows: active = hit-call score of the fitted dose curve at least 0.9, where 1 is the maximum; inactive = score below 0.9.
Assay endpoint: outcome

Smiles repr: CCCCOC(=O)c1ccccc1C(=O)O
Assay endpoint: outcome
Result: inactive
//
Smiles repr: C[Si](Cn1cncn1)(c1ccc(F)cc1)c1ccc(F)cc1
Assay endpoint: outcome
Result: inactive
//
Smiles repr: CCOP(=O)(OCC)Oc1cc(C)nc(C(C)C)n1
Assay endpoint: outcome
Result: inactive

====

System: NCBI gene 100848466
Method notes: NVS_NR_bPR: NovaScreen (NVS) Nuclear Receptor Binding Assay for bovine Progextron Receptor (PR) (AID 2283343);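 as to AC50: actives lower bound radioligand signal below DMSO meaning displacement of the label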
Results filed as inconclusive are left out. Calls of active or inactive are those of the source. The calls were made as follows: active = hit-call score of the fitted dose curve at least 0.9, where 1 is the maximum; inconclusive = response in the unintended direction; inactive = score below 0.9.
Assay endpoint: AC50

Compound: CCOP(=S)(OCC)Oc1cc(C)nc(C(C)C)n1
Result: inactive
//
Compound: C#CC(C)(C)NC(=O)c1cc(Cl)cc(Cl)c1
Result: inactive
//
Compound: CCOC(=O)CC(SP(=O)(OC)OC)C(=O)OCC (centres undefined)
Result: inactive
//
Compound: C=C(C)[C@H]1Cc2c(ccc3c2O[C@@H]2COc4cc(OC)c(OC)cc4[C@@H]2C3=O)O1
Result: inactive
//
Compound: CCOP(=S)(OCC)Oc1ccc([N+](=O)[O-])cc1
Result: 2.23 µM (active)
//
Compound: CCOP(=S)(OCC)Oc1ccc2c(C)c(Cl)c(=O)oc2c1
Result: 1.01 µM (active)
//
Compound: CC(C)N(C(=O)SCC(Cl)=C(Cl)Cl)C(C)C
Result: 36.8 µM (active)
//
Compound: CNc1cnn(-c2cccc(C(F)(F)F)c2)c(=O)c1Cl
Result: inactive
//
Compound: CCC(CC)Nc1c([N+](=O)[O-])cc(C)c(C)c1[N+](=O)[O-]
Result: 40.1 µM (active)

// provenance: PubChem BioAssay (EPA / NIEHS)
